src = patent US7605272B2

Molecular target: IGF-1R (Homo sapiens, UniProt P08069)
Construct: purchased Upstate Co. 14-465
Sequence (P08069 959-1367 limits assumed): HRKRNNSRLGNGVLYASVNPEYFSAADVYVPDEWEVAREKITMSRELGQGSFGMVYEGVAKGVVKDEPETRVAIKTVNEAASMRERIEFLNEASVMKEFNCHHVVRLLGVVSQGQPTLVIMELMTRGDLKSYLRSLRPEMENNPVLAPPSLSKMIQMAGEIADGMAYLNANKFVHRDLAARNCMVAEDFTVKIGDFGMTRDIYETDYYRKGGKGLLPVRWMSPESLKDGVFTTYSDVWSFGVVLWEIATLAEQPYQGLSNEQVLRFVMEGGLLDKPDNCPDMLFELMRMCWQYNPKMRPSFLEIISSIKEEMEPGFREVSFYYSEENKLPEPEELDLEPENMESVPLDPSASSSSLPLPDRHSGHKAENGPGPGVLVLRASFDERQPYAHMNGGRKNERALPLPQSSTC
Test: IGF-1R inhibitory activity (kinase reaction, time-resolved fluoroimmunoassay)
Assay type: biochemical
Conditions: IGF-1R active recombinant enzyme, test compound 10 μmol/L
Experimental: The IGF-1R inhibitory activity was measured in the following manner. As IGF-1R, active recombinant enzyme (Catalog No. 14-465) purchased from Upstate Co., was used. […] 4 times, then reacted with europium-labeled anti-phosphotyrosine antibody, further washed with TBS-T 4 times and then, measured with time-resolved fluoroimmunoassay (excitation wavelength 340 nm, measuring wavelength 615 nm). […]
Below is a list of entries, each paired with its recorded inhibition at 10 µM value.
Measured Parameter: inhibition at 10 µM (%)

• O=C(Cc1ccccc1)Nc1ccccc1/C=C/c1n[nH]c2ccccc12 = 55.4
• COc1c(OCC(=O)N2CCN(C)CC2)ccc(/C=C/c2n[nH]c3ccccc23)c1NC(=O)c1sccc1C = 109
• COCCN(CCN1CCOCC1)c1ccc(NC(=O)c2sccc2C)c(/C=C/c2n[nH]c3ccccc23)c1 = 97.1
• O=C(Nc1nc[nH]n1)c1ccccc1/C=C/c1n[nH]c2ccccc12 = 93.9
